Ref: patent US20240208992A1

# EC50 values compiled below
- Test System: human F508del-CFTR (Homo sapiens, UniProt P13569, DEL508-508)
- Sequence (P13569 with tags, fused parts or gaps DEL508-508): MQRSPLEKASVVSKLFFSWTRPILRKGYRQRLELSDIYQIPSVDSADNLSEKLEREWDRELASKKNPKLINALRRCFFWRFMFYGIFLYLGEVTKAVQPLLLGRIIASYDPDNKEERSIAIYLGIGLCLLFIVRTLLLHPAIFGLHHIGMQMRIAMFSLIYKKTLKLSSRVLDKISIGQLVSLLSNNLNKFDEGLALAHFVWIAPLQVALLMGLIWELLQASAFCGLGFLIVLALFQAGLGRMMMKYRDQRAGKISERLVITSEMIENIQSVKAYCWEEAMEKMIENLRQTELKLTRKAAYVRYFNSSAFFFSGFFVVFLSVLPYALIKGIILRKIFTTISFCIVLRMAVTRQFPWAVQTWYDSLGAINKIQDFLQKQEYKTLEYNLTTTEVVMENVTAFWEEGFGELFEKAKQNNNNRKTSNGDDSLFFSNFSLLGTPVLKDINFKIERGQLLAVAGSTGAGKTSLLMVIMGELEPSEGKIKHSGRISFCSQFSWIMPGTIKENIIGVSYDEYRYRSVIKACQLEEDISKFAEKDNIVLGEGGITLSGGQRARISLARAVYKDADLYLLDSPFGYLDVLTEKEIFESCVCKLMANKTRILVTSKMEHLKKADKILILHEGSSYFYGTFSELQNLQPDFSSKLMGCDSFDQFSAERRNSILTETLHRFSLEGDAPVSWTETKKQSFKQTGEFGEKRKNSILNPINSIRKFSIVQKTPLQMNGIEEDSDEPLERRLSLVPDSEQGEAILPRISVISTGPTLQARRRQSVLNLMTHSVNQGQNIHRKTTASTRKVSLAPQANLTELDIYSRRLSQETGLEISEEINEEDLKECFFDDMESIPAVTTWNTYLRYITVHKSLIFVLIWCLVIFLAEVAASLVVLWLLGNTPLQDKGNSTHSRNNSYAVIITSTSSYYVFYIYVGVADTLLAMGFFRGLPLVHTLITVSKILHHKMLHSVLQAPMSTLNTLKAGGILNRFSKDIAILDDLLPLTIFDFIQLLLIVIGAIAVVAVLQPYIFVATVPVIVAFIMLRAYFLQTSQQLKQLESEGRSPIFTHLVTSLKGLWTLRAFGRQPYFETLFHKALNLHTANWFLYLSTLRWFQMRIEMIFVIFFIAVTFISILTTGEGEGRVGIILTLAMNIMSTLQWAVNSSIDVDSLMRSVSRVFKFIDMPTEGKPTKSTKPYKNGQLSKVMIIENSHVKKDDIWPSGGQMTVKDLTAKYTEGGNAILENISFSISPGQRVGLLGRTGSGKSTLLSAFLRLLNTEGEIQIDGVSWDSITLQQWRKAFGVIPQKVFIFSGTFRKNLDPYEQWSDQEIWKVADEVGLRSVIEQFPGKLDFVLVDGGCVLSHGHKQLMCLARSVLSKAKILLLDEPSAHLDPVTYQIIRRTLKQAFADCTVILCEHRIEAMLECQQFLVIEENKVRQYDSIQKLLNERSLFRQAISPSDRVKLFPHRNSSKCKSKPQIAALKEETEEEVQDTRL
- Procedure Summary: F508del-CFTR cell surface expression (corrector activity), DiscoveRx ß-galactosidase complementation chemiluminescence assay in recombinant U2OS cell line
- Conditions: EC50, F508del-CFTR cell surface expression, U2OS cells, 16h compound incubation; geomean values

- Compound Structure: "COc1cc(CCNC(=O)[C@@H]2CC(=O)N(C)[C@@H](CC(C)C)C(=O)N(C)[C@H](C)C(=O)N[C@H](Cc3ccccc3)COc3ccc4nccn4c3C(=O)N2)on1"
  EC50 / µM: 0.675
- Compound Structure: "COc1cccc2c1C(=O)N[C@H](C(=O)NCCc1noc(C3CC3)n1)CC(=O)N(C)[C@@H](CC(C)C)C(=O)N(C)[C@H](Cc1nc(-c3ccc(F)cn3)no1)C(=O)N[C@H](Cc1ccccc1)CO2"
  EC50 / µM: 0.859
- Compound Structure: "CC(C)C[C@H]1C(=O)N2CCCC[C@@H]2C(=O)N[C@H](Cc2ccccc2)COc2cnc3c(F)cccc3c2C(=O)N[C@H](C(=O)NCCc2cc(C3CC3)on2)CC(=O)N1C"
  EC50 / µM: 0.182

###

- Test System: human F508del-CFTR (Homo sapiens, UniProt P13569, DEL508-508)
- Procedure Summary: F508del-CFTR cell surface expression (corrector activity), DiscoveRx ß-galactosidase complementation chemiluminescence assay in recombinant U2OS cell line
- Conditions: U2OS, in relation to the Emax of the corrector lumacaftor (=100%); U2OS cells, 16h compound incubation; arithmetic mean
# Emax values compiled below

- Molecule: "Cc1cc2c3c(ccc2cn1)OC[C@@H](Cc1ccccc1)NC(=O)C1(CC1)N(C)C(=O)[C@H](CC(C)C)N(C)C(=O)C[C@@H](C(=O)NCCn1nc2ccccc2n1)NC3=O [Example 904]"
  Emax [%]: 365
- Molecule: "COc1noc(CCNC(=O)[C@@H]2CC(=O)N(C)[C@@H](CC(C)C)C(=O)N(C)[C@H](Cc3nc(C(F)(F)F)no3)C(=O)N[C@H](Cc3ccccc3)COc3cc(C)nc(OC)c3C(=O)N2)n1 [Example 919]"
  Emax [%]: 443
- Molecule: "COc1cc(C[C@@H]2C(=O)N[C@H](Cc3ccccc3)COc3ccc4ncc(F)cc4c3C(=O)N[C@H](C(=O)NCCc3noc(C4CC4)n3)CC(=O)N(C)[C@@H](CC(C)C)C(=O)N2C)on1 [Example 879]"
  Emax [%]: 360
- Molecule: "COc1noc(CCNC(=O)[C@@H]2CC(=O)N(C)[C@@H](CC(C)C)C(=O)N(C)[C@H](CC(F)(F)F)C(=O)N[C@H](Cc3ccccc3)COc3ccc4cnc(C)cc4c3C(=O)N2)c1F [Example 960]"
  Emax [%]: 507
- Molecule: "COc1cc(CCNC(=O)[C@@H]2CC(=O)N(C)[C@@H](CC(C)C)C(=O)N(C)[C@H](CC(F)F)C(=O)N[C@H](Cc3ccccc3)COc3ccc4ncc(F)cc4c3C(=O)N2)on1 [Example 819]"
  Emax [%]: 431

###

# EC50 values compiled below
- Test System: human F508del-CFTR (Homo sapiens, UniProt P13569, DEL508-508)
- Procedure Summary: F508del-CFTR cell surface expression (corrector activity), DiscoveRx ß-galactosidase complementation chemiluminescence assay in recombinant U2OS cell line;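 further: U2OS cells co-expressing ProLink-tagged F508del-CFTR and a membrane-anchored enzyme acceptor, where more surface CFTR restores β-galactosidase activity measured by chemiluminescence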
- Conditions: EC50, F508del-CFTR cell surface expression, U2OS cells, 16h compound incubation; geomean values

- Compound: "Cc1cc(CCNC(=O)[C@@H]2CC(=O)N(C)[C@@H](CC(C)C)C(=O)N(C)C3(CCCC3)C(=O)N[C@H](Cc3ccccc3)COc3cnc4ccccc4c3C(=O)N2)on1"
  EC50 (nM): 874
- Compound: "COc1nccc2c1C(=O)NC(C(=O)NCCc1cc(C3CC3)no1)CC(=O)N(C)C(CC(C)C)C(=O)N(C)C(CC1CCC(F)(F)CC1)C(=O)NC(Cc1ccccc1)CO2 (single isomer, unassigned) [Example 661]"
  EC50 (nM): 421
- Compound: "COc1cc2c(cc1OC)C(=O)N[C@H](C(=O)NCCc1ccc3c(c1)OCC3)CC(=O)N(C)[C@@H](CC(C)C)C(=O)N(CCC1CCCCC1)CC(=O)N[C@H](Cc1ccccc1)CO2"
  EC50 (nM): 168
- Compound: "COc1cccc(CCNC(=O)[C@@H]2CC(=O)N(C)[C@@H](CC(C)C)C(=O)N3CCOC[C@@H]3C(=O)N[C@H](Cc3ccccc3)COc3cnc4ccccc4c3C(=O)N2)c1"
  EC50 (nM): 377
- Compound: "COc1nccc2c1C(=O)N[C@H](C(=O)NCCc1cc(C3CC3)no1)CC(=O)N(C)[C@@H](CC(C)C)C(=O)N1CCC3(CC3)C[C@@H]1C(=O)N[C@H](Cc1ccccc1)CO2 (single isomer, unassigned) [Example 669]"
  EC50 (nM): 856
